# SYSTEM NAME: human TLR8 (Homo sapiens, UniProt Q9NR97)
# Sequence (Q9NR97 27-1041): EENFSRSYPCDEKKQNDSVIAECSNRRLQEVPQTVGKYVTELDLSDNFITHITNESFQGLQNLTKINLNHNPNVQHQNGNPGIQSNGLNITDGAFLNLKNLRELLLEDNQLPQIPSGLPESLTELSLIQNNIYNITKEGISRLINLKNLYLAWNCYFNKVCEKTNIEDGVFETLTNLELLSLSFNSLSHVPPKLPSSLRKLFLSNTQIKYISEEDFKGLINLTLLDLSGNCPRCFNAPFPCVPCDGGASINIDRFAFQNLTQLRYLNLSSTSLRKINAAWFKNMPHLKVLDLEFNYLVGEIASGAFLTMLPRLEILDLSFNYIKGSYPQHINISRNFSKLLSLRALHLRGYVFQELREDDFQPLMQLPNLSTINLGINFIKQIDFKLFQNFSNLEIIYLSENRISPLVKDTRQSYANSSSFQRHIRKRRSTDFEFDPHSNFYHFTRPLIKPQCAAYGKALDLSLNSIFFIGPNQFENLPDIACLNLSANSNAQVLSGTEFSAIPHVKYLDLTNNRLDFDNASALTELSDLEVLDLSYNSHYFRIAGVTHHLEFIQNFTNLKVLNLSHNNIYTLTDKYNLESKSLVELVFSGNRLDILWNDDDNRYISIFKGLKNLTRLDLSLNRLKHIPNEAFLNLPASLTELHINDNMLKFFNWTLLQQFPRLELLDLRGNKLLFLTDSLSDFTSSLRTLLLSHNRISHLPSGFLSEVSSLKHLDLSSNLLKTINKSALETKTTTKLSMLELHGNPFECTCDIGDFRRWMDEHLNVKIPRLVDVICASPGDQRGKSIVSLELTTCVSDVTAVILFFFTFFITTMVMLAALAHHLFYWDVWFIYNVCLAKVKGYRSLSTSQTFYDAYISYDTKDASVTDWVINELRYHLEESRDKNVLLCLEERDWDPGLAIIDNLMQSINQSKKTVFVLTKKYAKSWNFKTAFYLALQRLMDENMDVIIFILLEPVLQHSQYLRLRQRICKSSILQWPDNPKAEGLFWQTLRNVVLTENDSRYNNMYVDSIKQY
# ASSAY PROTOCOL: HEK-Blue hTLR8 SEAP reporter gene agonism assay
# TEST CONDITIONS: HEK-Blue hTLR8 cells, SEAP (Quanti-blue, 650 nm), 16-22 hours incubation
pEC50: −log10 of the molar value.
pEC50 below 7 gives Condition not met; pEC50 at or above it gives Condition met.

Example entries begin here.
CCCCNc1nc(N)nc2cnn(Cc3ccc(CN4CCNCC4)cc3)c(=O)c12 : Condition not met
CCC[C@@H](C)Nc1nc(N)nc2cnn(Cc3ccc(CN4CCN(C)CC4)cc3)c(=O)c12 : Condition not met
CCCCNc1nc(N)nc2cnn(Cc3ccc4c(c3)CCN(C(C)C)C4)c(=O)c12 : Condition not met
CCCCNc1nc(N)nc2cnn(Cc3ccc(C(=O)N4CCN(C)CC4)cc3)c(=O)c12 : Condition not met
CCCCNc1nc(N)nc2cnn(Cc3ccc4c(c3)CCNC4)c(=O)c12 : Condition not met

QUERY: Say whether CCC[C@@H](C)Nc1nc(N)nc2cnn(Cc3ccc(CN(CCC)CCO)cc3)c(=O)c12 shows pEC50 of 7 or more.
RESULT: Condition not met

QUERY: Tell me whether pEC50 is at least 7 here: CCC[C@@H](CO)Nc1nc(N)nc2cnn(Cc3ccc(C(=O)N4CC5CC(C4)N5)cc3)c(=O)c12
RESULT: Condition met
